- Target: T1, recombinant human Nectin-4-His protein (human, UniProt Q96NY8 32-349)
- T1 construct: Rescreening antigen and bought ELISA antigen are treated as one molecule; also called human Nectin-4-His tagged; Ag1; not shown: His tag
- T1 sequence: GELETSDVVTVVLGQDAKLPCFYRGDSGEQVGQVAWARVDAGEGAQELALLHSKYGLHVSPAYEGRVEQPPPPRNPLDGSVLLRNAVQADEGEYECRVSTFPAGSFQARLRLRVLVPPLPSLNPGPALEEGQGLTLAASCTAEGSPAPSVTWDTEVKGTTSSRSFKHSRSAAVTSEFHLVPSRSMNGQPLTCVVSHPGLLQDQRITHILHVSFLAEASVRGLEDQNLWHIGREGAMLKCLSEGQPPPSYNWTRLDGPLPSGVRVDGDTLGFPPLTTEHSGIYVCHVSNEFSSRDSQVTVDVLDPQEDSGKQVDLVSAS
- Protocol description: ELISA, coated antigen
pEC50: −log10 of the molar value.
Quick reference for pEC50 among some binders

Binder	pEC50
Nectin-4 5D9 VH5/VL5 (antibody, V domains shown, Humanized; also called 5D9 VH variant 5 / 5D9 VL variant 5) VH: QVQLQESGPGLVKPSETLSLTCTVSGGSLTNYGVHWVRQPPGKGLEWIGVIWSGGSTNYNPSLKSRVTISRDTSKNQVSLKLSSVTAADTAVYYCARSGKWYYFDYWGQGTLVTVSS VL: DIQMTQSPSSLSASVGDRVTITCRASQSIYSNLAWYQQKPGKAPKLLVYAATNLQSGVPSRFSGSGSGTDFTLTISSLQPEDFATYYCQHFWGTPTFGGGTKVEIK	7.25
Nectin-4 5D9 VH4/VL5 (antibody, V domains shown, Humanized; also called 5D9 VH variant 4 / 5D9 VL variant 5; Nectin-4 VH4/VL5) VH: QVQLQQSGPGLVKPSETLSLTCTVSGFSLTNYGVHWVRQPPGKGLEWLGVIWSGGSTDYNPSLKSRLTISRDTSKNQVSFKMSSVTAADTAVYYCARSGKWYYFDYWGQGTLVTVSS VL: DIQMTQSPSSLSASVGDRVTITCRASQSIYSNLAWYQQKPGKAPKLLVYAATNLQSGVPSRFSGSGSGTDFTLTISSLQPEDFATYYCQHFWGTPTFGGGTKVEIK	9.71
Nectin-4 5D9 VH4/VL1 (antibody, V domains shown, Humanized; also called 5D9 VH variant 4 / 5D9 VL variant 1; Nectin-4 VH4/VL1) VH: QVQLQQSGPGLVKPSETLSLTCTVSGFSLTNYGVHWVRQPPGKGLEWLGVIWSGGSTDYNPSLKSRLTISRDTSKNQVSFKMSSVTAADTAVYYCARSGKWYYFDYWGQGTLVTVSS VL: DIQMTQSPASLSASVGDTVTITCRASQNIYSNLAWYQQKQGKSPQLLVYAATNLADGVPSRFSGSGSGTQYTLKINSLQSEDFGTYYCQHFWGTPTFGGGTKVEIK	9.67
Nectin-4 5D9 VH3/VL4 (antibody, V domains shown, Humanized; also called 5D9 VH variant 3 / 5D9 VL variant 4) VH: QVQLQESGPGLVKPSETLSLTCTVSGGSITNYGVHWIRQPPGKGLEWLGVIWSGGSTDYNPSLKSRVTISVDTSKNQFSLKLSSVTAADTAVYYCARSGKWYYFDYWGQGTLVTVSS VL: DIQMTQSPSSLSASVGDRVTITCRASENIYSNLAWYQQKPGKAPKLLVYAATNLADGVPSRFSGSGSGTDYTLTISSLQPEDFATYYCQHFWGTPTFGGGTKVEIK	4.36
Nectin-4 5D9 VH3/VL3 (antibody, V domains shown, Humanized; also called 5D9 VH variant 3 / 5D9 VL variant 3) VH: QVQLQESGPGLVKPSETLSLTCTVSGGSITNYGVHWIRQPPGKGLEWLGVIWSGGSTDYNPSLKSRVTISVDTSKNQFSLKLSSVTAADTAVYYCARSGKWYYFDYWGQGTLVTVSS VL: DIQMTQSPSSLSASVGDRVTITCRASQSIYSNLAWYQQKPGKAPKLLVYAATNLASGVPSRFSGSGSGTDFTLTISSLQPEDFATYYCQHFWGTPTFGGGTKVEIK	7.62
Nectin-4 5D9 VH1/VL4 (antibody, V domains shown, Humanized; also called 5D9 VH variant 1 / 5D9 VL variant 4) VH: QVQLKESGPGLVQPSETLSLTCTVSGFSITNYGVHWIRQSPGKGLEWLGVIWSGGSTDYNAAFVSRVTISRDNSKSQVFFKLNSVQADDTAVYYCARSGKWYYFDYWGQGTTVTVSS VL: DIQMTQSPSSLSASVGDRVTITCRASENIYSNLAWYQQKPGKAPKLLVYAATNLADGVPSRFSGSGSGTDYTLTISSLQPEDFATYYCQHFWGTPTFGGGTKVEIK	9.64
Nectin-4 5D9 VH5/VL2 (antibody, V domains shown, Humanized; also called 5D9 VH variant 5 / 5D9 VL variant 2) VH: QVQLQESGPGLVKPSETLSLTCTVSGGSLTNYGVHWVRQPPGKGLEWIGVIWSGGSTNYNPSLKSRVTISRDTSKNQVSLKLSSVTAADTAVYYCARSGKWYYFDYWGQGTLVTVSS VL: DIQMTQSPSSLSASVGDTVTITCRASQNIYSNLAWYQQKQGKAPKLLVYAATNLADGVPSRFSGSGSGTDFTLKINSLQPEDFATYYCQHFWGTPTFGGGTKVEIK	8.69
Nectin-4 5D9 VH2/VL4 (antibody, V domains shown, Humanized; also called 5D9 VH variant 2 / 5D9 VL variant 4) VH: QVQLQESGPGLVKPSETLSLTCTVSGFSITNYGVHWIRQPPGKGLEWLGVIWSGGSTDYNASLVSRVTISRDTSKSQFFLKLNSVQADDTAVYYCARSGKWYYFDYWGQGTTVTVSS VL: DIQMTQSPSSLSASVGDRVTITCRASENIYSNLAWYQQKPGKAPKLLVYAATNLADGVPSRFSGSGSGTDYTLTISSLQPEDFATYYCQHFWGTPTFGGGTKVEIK	9.12
Nectin-4 5D9 VH3/VL2 (antibody, V domains shown, Humanized; also called 5D9 VH variant 3 / 5D9 VL variant 2) VH: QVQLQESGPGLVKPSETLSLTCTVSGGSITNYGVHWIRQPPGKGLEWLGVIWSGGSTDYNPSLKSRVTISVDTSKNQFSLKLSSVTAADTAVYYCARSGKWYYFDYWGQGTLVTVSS VL: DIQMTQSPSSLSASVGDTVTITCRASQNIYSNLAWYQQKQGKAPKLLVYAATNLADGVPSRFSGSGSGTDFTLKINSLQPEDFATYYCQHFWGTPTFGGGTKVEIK	8.06
Nectin-4 5D9 VH4/VL3 (antibody, V domains shown, Humanized; also called 5D9 VH variant 4 / 5D9 VL variant 3) VH: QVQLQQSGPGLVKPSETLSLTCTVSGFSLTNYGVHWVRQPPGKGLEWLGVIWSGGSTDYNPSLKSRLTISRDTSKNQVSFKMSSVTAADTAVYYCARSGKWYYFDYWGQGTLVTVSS VL: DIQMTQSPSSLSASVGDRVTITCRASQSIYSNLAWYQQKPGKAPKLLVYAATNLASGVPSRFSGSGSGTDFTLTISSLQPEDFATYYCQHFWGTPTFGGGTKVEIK	9.69
